Recorded measurements of growth, one per entry
# System: BT-549 breast
# assay: NCI-60 one-dose screen, 48 h (100 = growth as untreated, 0 = no growth, -100 = all killed)
# testSettings: 10 µM unless noted
This is part of a sample that, as a whole, favours compounds with a hit. Of some 83,000 tested, about 20% had one in any assay.

molecule	growth, %
Cc1ccc2nc3ccccc3c(NCc3ccc(Cl)cc3)c2c1	75.6
COc1ccc(C2Nc3nc(SC)nc(N)c3N=C3c4ccccc4CCC32)cc1 (centres undefined)	105
COc1ccc(/C=N/C2=C(C#N)C(c3ccccc3)c3c(ccc4ccccc34)O2)cc1 (centres undefined)	35.7
O=C(NCc1cccnc1)/C(=C\c1ccc(Br)cc1)S(=O)(=O)c1ccccc1	-21.2
CCOc1nc(-c2ccccc2)cc2c(O)c(C(=O)N/N=C/c3ccc(N(C)C)cc3)[nH]c(=O)c12	125
CN1CCN(Cc2ccc(NC(=O)c3cccc(C#Cc4c(N)ncc5ccc(F)cc45)c3)cc2C(F)(F)F)CC1	28.5
COc1cc(N=Nc2ccc(O)c3ncccc23)c2ncccc2c1	39
COc1ccccc1/C=C1\COc2ccc(O)cc2C1=O	76.2
CCCCCO/N=C\c1c2c(O)c3c(O)c(C)c4c(c3c1O)C(=O)C(C)(O/C=C\C(OC)C(C)C(OC(C)=O)C(C)C(O)C(C)C(O)C(C)/C=C\C=C(\C)C(=O)N2)O4 (centres undefined)	33.1
O=C1C(Nc2ccc(Cl)cc2)=C(I)C(=O)c2ncccc21	53.3
N#C/C(=N\Nc1ccc(Cl)cc1)C(=O)Nc1cc(-c2ccccc2)nn1-c1ccccc1	11.4
Cn1cc(-c2csc(-c3cn(CCOC(N)=O)c4ccccc34)n2)c2cccnc21	79.5
C[C@@H]1CC[C@@H]2[C@@H]1[C@H](OC(=O)/C=C/c1ccccc1)[C@]1(c3ccccc3)C[C@@H](NC(=O)CO)[C@@]2(C)O1	114
Nc1nc2ccccc2c2c(=O)c3ccc(Cl)cc3sc12	94.3
COc1c(F)cc(-n2c(C(=O)N3CC(F)C3)cc3cccnc32)cc1F	97.2
Cc1ccc(-c2nc3nc(-c4ccccc4)nc(N4CCN(S(=O)(=O)c5ccccc5)CC4)c3o2)cc1	64.5
Cc1cccc(Cc2cnc(NC(=O)CCCOc3ccc(Cl)cc3)s2)c1	61.5
COc1cc(Cl)cc(-c2nn(C(=O)NS(=O)(=O)c3ccc(Cl)cc3)cc2-c2ccncc2)c1	41.2
COc1ccc(C(=O)N/N=C/c2ccc(O)cc2O)cc1Nc1ccnc(C(F)(F)F)c1	55.6
Oc1ccccc1C=Nc1ccc(N2CCN(c3ccccc3)CC2)cc1	54.8
N=C(N)SCc1c2ccccc2c(CSC(=N)N)c2ccccc12	102
O=C(Nc1ccc2ncsc2c1)c1csc(Nc2ccc3[nH]ncc3c2)n1	73.4
O=c1ccc2nc(-c3ccccn3)nn(-c3ccccc3)c-2c1	86.6
Cn1cc(-c2nc3c(F)cc4[nH]ncc4c3c3c2CCCC3)c(C(F)F)n1	31.1
N#Cc1c(-c2cccc(F)c2)cc(-c2cccnc2)[nH]c1=O	98.3
CCN(C(=O)N1CCN(c2cc3c(cc2F)c(=O)c(C(=O)O)cn3C2CC2)CC1)c1nc(-c2ccccc2)cs1	-9.57
COc1cc(CO)cc2cc3ccccc3nc12	102
COc1cccc(C2C(C#N)=C(N)Oc3cc(OCCCCCC[P+](c4ccccc4)(c4ccccc4)c4ccccc4)ccc32)c1 (centres undefined)	-54.3
COc1ccc(-c2cc(-c3cc(OC)c(OC)c(OC)c3)c(C#N)c(=O)n2CCCCC(=O)O)cc1	102
O=C([C@H]1C[C@H]1c1ccc(S(F)(F)(F)(F)F)cc1)N1CCN(c2cc(Cl)ccc2C(F)(F)F)CC1	106
CC(C)=CCc1cc(O)c(O)c2oc3cc(O)cc(O)c3c(=O)c12	75.1
COc1ccc(/C=C2\COc3ccc(O)c(O)c3C2=O)c(OC)c1OC	46.9
Clc1ccc2c(NCCN3CCN(c4ccnc(N5CCCC5)n4)CC3)ccnc2c1	75.8
CN(C)CCN1C(=O)c2c(c3c4ccccc4n4c3c3c2c2ccccc2n3C2CC(O)C(O)C4(C)O2)C1=O (centres undefined)	62.9
Cc1nc(-n2[nH]c(=O)ccc2=O)sc1N=Nc1ccccc1	95.7
CN1CCN(C(=O)OCc2nc3c(N4CCOCC4)nc(Cl)nc3n2C)CC1	-84.2
COc1cc(/C=N/NC(=O)CCN2c3ccccc3Sc3ccccc32)cc(OC)c1OC	88.6
COc1ccc(/C(C)=C(\c2ccc(OCCN3CCCCCC3)cc2)c2ccc(OC(=O)C3CCCCC3)cc2)cc1	-78.2
O=C(/C=C/c1ccc(Cl)s1)c1ccc(Cl)s1	103
